- SYSTEM TESTED: T1, class I MHC receptor HLA-A2 on T2 cells (human)
- T1 construct: detected on the cell surface with a mouse anti-human HLA-A2 monoclonal antibody and goat anti-mouse IgG F(ab')2-FITC; also called HLA-A2 receptor; HLA-A2 class I MHC
- PROCEDURE TEXT: T2 cells, anti-HLA-A2 flow cytometry after brefeldin A; Assay #1; 8 hr
MEASUREMENT LABEL: fluorescence index (F.I.)

Example cases with answers are listed next.
BINDER | fluorescence index (F.I.)
GQGDVMVFV [Filamin B peptide #6] | 1.09
SLQESGLKV [Filamin B peptide #4] | 1.09
LILGLVWTL [Filamin B peptide #1] | 3.22

(1) KLILGLVWT [Filamin B peptide #7]
(2) GLAPLEVRV [Filamin B peptide #3]
Identify the entry with the smaller fluorescence index: 1 or 2 . Lab note: record the label of whichever item you select.
1
